# Tested on: SF-268 CNS
# measurementProtocol: NCI tumour cell line growth inhibition, 48 h
reportedEndpoint: GI50

# compound, result
records = [
    ("CC[C@H](C)[C@H](NC(=O)NC(C)(C)C)C(=O)N(C)[C@H](C[C@@H](OC(C)=O)c1nc(C(=O)N[C@@H](Cc2ccccc2)C[C@H](C)C(=O)OC)cs1)C(C)C", "0.867 µM"),
    ("CCCCCCCCNC(C)C(O)c1ccc(SC(C)C)cc1 (stereo not drawn)", "1.67 µM"),
    ("Clc1ccc2nc(Cl)c3ccccc3c2c1", "17.2 µM"),
]

---

Listed here: items and their measured TGI.
# Test system: KM12 colon
# measurementProtocol: NCI tumour cell line growth inhibition, 48 h

# molecule, testTarget, TGI
records = [
    ("Nc1nccc2c1ccn2-c1cccc(NC(=O)c2ccc(N3CCOCC3)c(C(F)(F)F)c2)c1", "KM12 colon", "2.73 µM"),
    ("COc1cc2cnc(-c3ccccc3)cc2cc1OC", "KM12 colon", "61.2 µM"),
    ("Cc1ccc(N=C2SC(=NN(C)C)SC2=Nc2ccc(C)cc2)cc1", "KM12 colon", "> 100 µM"),
    ("CCN(CC)C1Oc2cc3c(cc2C(c2cccc(OC)c2O)C1C)OCO3 (stereo unspecified)", "KM12 colon", "16.6 µM"),
    ("Oc1ccc2ccccc2c1N=Nc1ccc(Cl)cc1", "KM12 colon", "> 100 µM"),
    ("Nc1nc(-c2ccc(Cl)cc2)cc(-c2ccc(Cl)cc2)c1-c1nc2ccccc2o1", "KM12 colon", "27.2 µM"),
    ("Nc1ccccc1OCCCOc1ccccc1N", "KM12 colon", "> 100 µM"),
    ("O=C1CC(C(COCc2ccccc2)OCc2ccccc2)CC(=O)N1 (stereo unspecified)", "KM12 colon", "> 100 µM"),
    ("N#Cc1ccc(C2Oc3ccc(Cl)cc3C=C2[N+](=O)[O-])cc1 (stereo unspecified)", "KM12 colon", "3.81 µM"),
    ("CCOc1ccc(NCC2CC/C(=C\\c3ccc(Cl)cc3)C2=O)cc1 (stereo unspecified)", "KM12 colon", "> 44 µM"),
    ("CC(=O)Nc1ccc(-c2csc(Nc3cccc(-c4csc(-c5ccccc5)n4)c3)n2)cc1", "KM12 colon", "> 50 µM"),
    ("Cn1c(COC(=O)NC2CCCCC2)c(COC(=O)NC2CCCCC2)c2ccc3cc(C=O)ccc3c21", "KM12 colon", "> 100 µM"),
    ("O=C1/C(=C/c2ccc(Cl)cc2)CN(C(=O)CCN2CCC(=NO)CC2)C/C1=C\\c1ccc(Cl)cc1", "KM12 colon", "0.935 µM"),
    ("CN(C)C(=S)/N=c1\\ss/c(=N\\C(=S)N(C)C)n1Cc1ccco1", "KM12 colon", "> 100 µM"),
    ("CCC(=O)N1C(=O)C(CC)(CC)C(=O)N1C(=O)CC", "KM12 colon", "> 100 µM"),
    ("CN(C)CCNC(=O)c1c2ccccc2cc2ccccc12", "KM12 colon", "> 100 µM"),
    ("CC(O)C(NC(=O)c1ccccc1)C(=O)N(Cc1ccccc1)Cc1ccccc1 (stereo unspecified)", "KM12 colon", "> 100 µM"),
    ("CCOC(=O)C1=C(c2ccccc2)C12N(Cc1ccccc1)C(=O)C2(c1ccccc1)c1ccccc1 (stereo unspecified)", "KM12 colon", "> 100 µM"),
    ("O=C(c1ccco1)c1nc2cc(C(F)(F)F)ccc2[n+]([O-])c1C(F)(F)F", "KM12 colon", "> 100 µM"),
    ("C=C1CCC2C(C)(CO)C(O)CCC2(C)C1C/C=C1/CCOC1=O (stereo unspecified)", "KM12 colon", "> 100 µM"),
    ("CCOC(=O)c1ccccc1SC(C[N+](=O)[O-])c1ccccc1 (stereo unspecified)", "KM12 colon", "10.4 µM"),
]
